MEASUREMENT_TARGET: Free fatty acid receptor 1 (Homo sapiens)
Sequence (O14842 whole entry): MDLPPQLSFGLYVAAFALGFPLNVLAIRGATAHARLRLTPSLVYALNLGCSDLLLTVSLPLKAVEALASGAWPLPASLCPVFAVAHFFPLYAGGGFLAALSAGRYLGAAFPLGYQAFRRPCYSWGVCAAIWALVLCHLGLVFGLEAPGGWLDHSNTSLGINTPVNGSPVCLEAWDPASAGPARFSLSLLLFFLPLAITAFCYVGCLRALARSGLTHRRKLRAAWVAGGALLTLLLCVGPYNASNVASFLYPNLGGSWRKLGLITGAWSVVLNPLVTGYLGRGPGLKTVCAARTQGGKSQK
ASSAY_PROCEDURE: Agonist activity at GPR40 (unknown origin) expressed in HEK293 cells assessed as intracellular inositol phosphate accumulation incubated for 30 mins by IP-one HTRF analysis
Type: functional, cell-based
pEC50: −log10 of the molar value.
REPORTED_METRIC: pEC50

[a] COc1cc(/C=C(C)/C=C/COc2cccc(C(CC(=O)O)C3CC3)c2)cc(OCCC(C)(C)C)c1 (centres undefined)
[b] COc1ccc(F)c(/C=C/C=C/COc2cccc(C(CC(=O)O)C3CC3)c2)c1 (centres undefined)
Consider a and b . Which of these has its pEC50 at a higher number? Answer by quoting the chosen item's label. a

[A] COc1cc(/C=C(C)/C=C/COc2cccc(C(CC(=O)O)C3CC3)c2)cc(OCc2ccc(Cl)cc2F)c1 (centres undefined)
[B] COc1ccc(OCCC(C)(C)C)c(/C=C(C)/C=C/COc2cccc([C@H](C3CC3)[C@@](C)(F)C(=O)O)c2)c1
Smaller pEC50 value? Options are A and B Answer with the label corresponding to your selection. A

[1] COc1ccc(OC)c(/C=C(C)/C=C/COc2cccc(C(CC(=O)O)C3CC3)c2)c1 (centres undefined)
[2] COc1ccc(F)c(CCCCOc2cccc(C(CC(=O)O)C3CC3)c2)c1 (centres undefined)
Given the listed items, does 1 or 2 have the lesser reported pEC50? Your answer should be the label attached to the chosen record. 2

These data points were gathered from ChEMBL document CHEMBL6182865.
